B1: HESX1 (parent)
chain: QKKDCVPLMKPHRPWADTCSSSGK

- Variants of: B1
- measurement.notes: protein stability index of a GFP-peptide fusion (GPS, HEK-293T) (PSI 1-6); higher = more stable;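 further: lentivirally expressed fusions sorted by FACS into six bins by GFP to DsRed ratio, PSI derived from sequencing read proportions per bin multiplied by bin number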
- experimental.setup: c terminus: a fixed tail appended
Tick Met if protein stability index is 3 or greater. Tick Not met if protein stability index is less than 3.

> print(dat)
     var    group
 1   L8P      Met
 2  W15P      Met
 3  A16N      Met
 4   K3D      Met
 5  P11K      Met
 6  S21L      Met
 7  S21N      Met
 8   D4L  Not met
 9  H12Q      Met
10  S20N      Met
11  W15N      Met
12  S20K      Met
13   P7D      Met
14   D4F  Not met
15  D17E      Met
16  A16V  Not met
17  P11N      Met
18  P11H      Met
19  K10D      Met
20   C5W      Met
21  H12G      Met
22  R13L      Met
23  H12L      Met
24  K24C      Met
25  G23P      Met
26  W15H      Met
27  P11G      Met
28   L8E      Met
29   K2D      Met
30   Q1H      Met
31  C19S      Met
32  A16Y      Met
33  K24T  Not met
34  C19K      Met
35  H12C      Met
36  G23A      Met
37  R13C      Met
38  S22Y      Met
39  S22H      Met
40  A16Q      Met
41  S21P      Met
42   V6K  Not met
43  H12E      Met
44   K3M      Met
45  T18I  Not met
46  S22G  Not met
47   V6C      Met
48   K3W      Met
49   P7R  Not met
50  T18N      Met
51  K24D      Met
52  K10Y      Met
53  S21T      Met
54   M9F  Not met
55  S22I      Met
56   C5G  Not met
57  T18S      Met
58  C19W  Not met
59  C19D      Met
60   V6N      Met
61   C5R      Met
62  S22E      Met
63   L8D      Met
64  W15A      Met
65  S21H  Not met
66  P14F      Met
67  K10F      Met
68   Q1R      Met
69  W15D      Met
70  D17A      Met
71  P11S      Met
72   L8R  Not met
73  G23R      Met
74   M9D      Met
75   K3F      Met
76  A16C      Met
77  K10A      Met
78  W15L      Met
79  H12W  Not met
80  D17I  Not met
81   M9R      Met
